test system: LOX IMVI melanoma; experiment: NCI-60 one-dose screen, 48 h (100 = growth as untreated, 0 = no growth, -100 = all killed); settings: 10 µM unless noted
The panel holds about 83,000 compounds, 20% with a hit somewhere; the sample as a whole holds those more often. Active and inactive are the calls of the source. Rule for the calls: active = growth percent below 10; inactive = the rest.

- compound: "CN(C)P1(N(C)C)=NP(N(C)C)(N(C)C)=NP(N(C)C)(N(C)C)=N1"
  system name: "LOX IMVI melanoma"
  growth: "92.7% (inactive)"
- compound: "O=C(O)C1(Br)CC12c1ccccc1-c1ccccc12 (stereo not given)"
  system name: "LOX IMVI melanoma"
  growth: "96.1% (inactive)"
- compound: "O=C1NC2(CCNCC2)Nc2ccccc21"
  system name: "LOX IMVI melanoma"
  growth: "102% (inactive)"
- compound: "CC(=O)O[C@H]1CC[C@H]2[C@@H]3CC[C@H]4CC=C(C)C[C@]4(C)[C@H]3CC[C@]12C"
  system name: "LOX IMVI melanoma"
  growth: "102% (inactive)"
- compound: "CNC(=O)Oc1cccc(OC)c1"
  system name: "LOX IMVI melanoma"
  growth: "100% (inactive)"
- compound: "CC(C)(C)N(Cc1ccccc1)N=O"
  system name: "LOX IMVI melanoma"
  growth: "93.7% (inactive)"
- compound: "O=C1NC(=O)C(=Cc2cn(Cc3ccccc3)c3ccccc23)C(=O)N1"
  system name: "LOX IMVI melanoma"
  growth: "83.4% (inactive)"
- compound: "CC[C@@H](C)/C=C(C)/C=C/C(=O)c1c(O)c(-c2ccc(O)cc2)cn(O)c1=O"
  system name: "LOX IMVI melanoma"
  growth: "3.82% (active)"
- compound: "CCC(CC)(c1ccccc1)C(OC(N)=O)c1ccccc1 (stereo not given)"
  system name: "LOX IMVI melanoma"
  growth: "77.8% (inactive)"
- compound: "O=CC(Br)C(Br)c1ccccc1 (stereo not given)"
  system name: "LOX IMVI melanoma"
  growth: "56.2% (inactive)"
- compound: "CC(C)(C)NCC(O)c1ccccc1Cl (stereo not given)"
  system name: "LOX IMVI melanoma"
  growth: "35.1% (inactive)"
- compound: "O=[As]c1ccc(C(=O)c2ccc(Oc3ccccc3)cc2)cc1 (stereo not given)"
  system name: "LOX IMVI melanoma"
  growth: "-91.2% (active)"
- compound: "OC1(c2ccc(Cl)cc2Cl)c2ccccc2C2=NCCN21 (stereo not given)"
  system name: "LOX IMVI melanoma"
  growth: "90.7% (inactive)"
- compound: "ClCCN(CCCl)C(c1ccccc1)c1ccc(Cl)cc1 (stereo not given)"
  system name: "LOX IMVI melanoma"
  growth: "81.3% (inactive)"
- compound: "N#CC1=C(N)Oc2cc3c(cc2C1c1cccs1)OCO3 (stereo not given)"
  system name: "LOX IMVI melanoma"
  growth: "37.2% (inactive)"
- compound: "Nc1ccc([N+](=O)[O-])c2c1Oc1ccccc1O2"
  system name: "LOX IMVI melanoma"
  growth: "103% (inactive)"
- compound: "CC(C)(NC(=O)c1nn(CCCCCF)c2ccccc12)c1ccccc1"
  system name: "LOX IMVI melanoma"
  growth: "96.3% (inactive)"
- compound: "CC(=O)Nc1ccc(Cc2ccc(NC(C)=O)cc2)cc1"
  system name: "LOX IMVI melanoma"
  growth: "99.8% (inactive)"
- compound: "CC(=O)C1C(=O)N(C)C(=O)N(C)C1=O"
  system name: "LOX IMVI melanoma"
  growth: "107% (inactive)"
- compound: "C=CCN1C(=O)C(CC)(CCC(C)C)C(=O)NC1=S (stereo not given)"
  system name: "LOX IMVI melanoma"
  growth: "109% (inactive)"
- compound: "COc1cc(C2=NN(c3ccccc3)C(c3sc(N(CCCl)CCCl)nc3Cl)C2)cc(OC)c1OC (stereo not given)"
  system name: "LOX IMVI melanoma"
  growth: "92.7% (inactive)"
- compound: "NC(Cc1ccc2c(c1)OCO2)c1ccc2c(c1)OCO2 (stereo not given)"
  system name: "LOX IMVI melanoma"
  growth: "99.8% (inactive)"
- compound: "CC(=O)N(C)C1=Nc2ccc(Cl)cc2C(c2ccccc2)=[N+]([O-])C1"
  system name: "LOX IMVI melanoma"
  growth: "95.4% (inactive)"
- compound: "Nc1cccc(CC(=O)Nc2ccc(S(=O)(=O)F)cc2)c1"
  system name: "LOX IMVI melanoma"
  growth: "98% (inactive)"
- compound: "CO[C@@H](c1ccccc1Cl)[C@H](C)OC(N)=O"
  system name: "LOX IMVI melanoma"
  growth: "98.1% (inactive)"
- compound: "Nc1nc(N)c(-c2ccc(Cl)c(Cl)c2)c(/C=C/c2ccc(S(=O)(=O)F)cc2)n1"
  system name: "LOX IMVI melanoma"
  growth: "69.1% (inactive)"
- compound: "O=C(O)c1nn(Cc2ccc(Cl)cc2)c2ccccc12"
  system name: "LOX IMVI melanoma"
  growth: "101% (inactive)"
- compound: "c1ccc(CCN2CCCCC2Cc2ccccc2)cc1 (stereo not given)"
  system name: "LOX IMVI melanoma"
  growth: "90.9% (inactive)"
- compound: "NC(=O)OCC(CO)(c1ccccc1)c1ccccc1"
  system name: "LOX IMVI melanoma"
  growth: "98.7% (inactive)"
- compound: "Nc1ncnc2c1c(C(=O)NO)cn2C1OC(CO)C(O)C1O (stereo not given)"
  system name: "LOX IMVI melanoma"
  growth: "-5.18% (active)"
- compound: "Cc1ccc(C(=O)C2CN(C)CCC2(O)c2ccc(C)cc2)cc1 (stereo not given)"
  system name: "LOX IMVI melanoma"
  growth: "98.9% (inactive)"
- compound: "O=C(O)c1cccc(CCl)c1"
  system name: "LOX IMVI melanoma"
  growth: "95.8% (inactive)"
- compound: "OC1(c2ccccc2F)c2ccccc2C2=NCCN21 (stereo not given)"
  system name: "LOX IMVI melanoma"
  growth: "96.9% (inactive)"
- compound: "Cc1cc(CCl)c(C)cc1CCl"
  system name: "LOX IMVI melanoma"
  growth: "28% (inactive)"
- compound: "O=C(NCCNC(=O)c1ccc([As](O)O)cc1)c1ccc([As](O)O)cc1"
  system name: "LOX IMVI melanoma"
  growth: "90.3% (inactive)"
- compound: "C=C=[CH][Sn]([c]1ccccc1)([c]1ccccc1)[c]1ccccc1"
  system name: "LOX IMVI melanoma"
  growth: "-77.2% (active)"
- compound: "CCC[CH2][Sn]([CH2]CCC)([CH2]CCC)[O]C(=O)c1ccc(Cl)cc1Cl"
  system name: "LOX IMVI melanoma"
  growth: "-70.3% (active)"
- compound: "O=S(=O)(c1ccc(Cl)cc1)C(Cl)(Cl)Cl"
  system name: "LOX IMVI melanoma"
  growth: "35.1% (inactive)"
- compound: "CC(=O)[O][Hg][c]1ccccc1"
  system name: "LOX IMVI melanoma"
  growth: "-88.2% (active)"
- compound: "Cc1cccc(N=C2c3cc([N+](=O)[O-])ccc3-c3c2cc([N+](=O)[O-])cc3[N+](=O)[O-])c1"
  system name: "LOX IMVI melanoma"
  growth: "39.3% (inactive)"
- compound: "CCC[CH2][Sn]([CH2]CCC)([CH2]CCC)[O]C(=O)CC"
  system name: "LOX IMVI melanoma"
  growth: "-83.3% (active)"
- compound: "n1nc(-c2nonc2-c2nn[nH]n2)n[nH]1"
  system name: "LOX IMVI melanoma"
  growth: "103% (inactive)"
- compound: "CC(=O)O[C@H]1C[C@H](O[C@H]2[C@@H](O)C[C@H](O[C@H]3[C@@H](O)C[C@H](O[C@H]4CC[C@@]5(C)C(CCC6C5C[C@@H](O)[C@]5(C)[C@@H](C7=CC(=O)OC7)CC[C@]65O)C4)O[C@@H]3C)O[C@@H]2C)O[C@H](C)[C@H]1O[C@@H]1O[C@H](CO)[C@@H](O)[C@H](O)[C@H]1O (stereo not given in full)"
  system name: "LOX IMVI melanoma"
  growth: "-97.4% (active)"
- compound: "Cc1ccc2oc(=O)c3c(c2c1)OC(N)=C(C#N)C3c1ccco1 (stereo not given)"
  system name: "LOX IMVI melanoma"
  growth: "96.8% (inactive)"
- compound: "CC12CC[C@H](O)C=C1/C(=N/O)CC1C2CCC2(C)C1CC[C@@H]2O (stereo not given in full)"
  system name: "LOX IMVI melanoma"
  growth: "94.3% (inactive)"

###

system: DU-145 prostate; test: NCI-60 one-dose screen, 48 h (100 = growth as untreated, 0 = no growth, -100 = all killed); details: 10 µM unless noted
The panel holds about 83,000 compounds, 20% with a hit somewhere; the sample as a whole holds those more often.

- compound: "C/C(=C\\c1cc(C(F)(F)F)n(-c2ccc(N)cc2)n1)[C@@H]1C[C@@H]2O[C@]2(C)CCC[C@H](C)[C@H](O)[C@@H](C)C(=O)C(C)(C)[C@@H](O)CC(=O)O1"
  value units: "%"
  growth: -23.9
- compound: "CCCCCCCC(=O)OCC/C=C/C1OC1C1OC(=O)/C=C\\C=C\\c2nc(oc2C)/C=C(/C)CCC2OC2C1OC(=O)NC(C)=O (centres undefined)"
  value units: "%"
  growth: -74.5
- compound: "O=[N+]([O-])c1ccc(/C=C/C=C/c2ccc(S(=O)(=O)F)cc2)c(Cl)c1"
  value units: "%"
  growth: 107
- compound: "O=C(O)c1nn(Cc2ccc(Cl)cc2)c2ccccc12"
  value units: "%"
  growth: 120
